- assay.notes: self-splicing fitness, log relative to wild type (ln ratio); higher = more splicing; Tetrahymena group I intron in knt gene, E. coli kanamycin selection, DiMSum; sequences stand for … in CUCUCU…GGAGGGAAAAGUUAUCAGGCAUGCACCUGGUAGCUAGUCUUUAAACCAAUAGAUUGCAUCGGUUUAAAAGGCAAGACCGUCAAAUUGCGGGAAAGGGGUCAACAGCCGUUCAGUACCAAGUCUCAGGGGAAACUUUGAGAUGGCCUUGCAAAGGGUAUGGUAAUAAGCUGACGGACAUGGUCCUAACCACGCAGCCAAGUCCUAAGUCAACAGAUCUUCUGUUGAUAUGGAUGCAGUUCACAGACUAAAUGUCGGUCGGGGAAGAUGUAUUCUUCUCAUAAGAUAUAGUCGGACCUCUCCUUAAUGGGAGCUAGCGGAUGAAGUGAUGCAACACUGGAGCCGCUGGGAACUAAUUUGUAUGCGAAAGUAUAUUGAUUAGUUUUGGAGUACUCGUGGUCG;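 note: selection with 25 µg/mL kanamycin versus none on LB agar overnight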
- assay.setup: 30 °C
Classify by measured self-splicing fitness (ln): Condition met if it is equal to or exceeds -0.8, Condition not met if it is smaller.

Worked set:
>>> category("ACCGAGCAAUAUUACGGGUA")
"Condition not met"
>>> category("CAGGAGCAAUAUUACGCGGA")
"Condition not met"
>>> category("CGGAAGCAAUAUUACGGACU")
"Condition met"
>>> category("UACUAGCAAUAUUACGGCUG")
"Condition not met"

Input: Check the entry "UUUAAGCAAUAUUACGACGA" : does self-splicing fitness (ln) equal or exceed -0.8?
Output: Condition met
